# key: entry, value: relative IC50
# Tested on: YST-1
# assay explanation: relative IC50 (inflection point of fitted dose-response curve, CellTiter-Glo viability, 72 h; top asymptote may be below 50% inhibition); higher = less potent
Kindly provide the numeric value in nM only, without the unit symbol.

Dear colleague, I am looking for the recorded relative IC50 of the following compound: "CCOc1cc2ncc(C#N)c(Nc3ccc(F)c(Cl)c3)c2cc1NC(=O)/C=C/CN(C)C"
323

Suppose we examine the compound "C=CCn1c(=O)c2cnc(Nc3ccc(N4CCN(C)CC4)cc3)nc2n1-c1cccc(C(C)(C)O)n1" ; what relative IC50 value has been reported?
326

Would you mind telling me what relative IC50 value was observed for "Cc1nc(Nc2n[nH]c3c2CN(C(=O)N[C@H](CN(C)C)c2ccccc2)C3(C)C)c2sccc2n1" ?
67

Need relative IC50, item "Nc1nc(F)nc2c1ncn2[C@@H]1O[C@H](CO)[C@@H](O)[C@@H]1O"
3480

Give its relative IC50 value. Item: "COc1cc2nccc(Oc3ccc(NC(=O)Nc4cc(C)on4)c(Cl)c3)c2cc1OC"
2260

For the compound "COc1ccc(Cl)c(Nc2nc3ccccc3nc2NS(=O)(=O)c2cccc(NC(=O)C(C)(C)N)c2)c1" , what relative IC50 is on record?
674

----------
# System: S1507-2
# assay explanation: drug sensitivity score (DSS, CellTox-Green cytotoxicity, 72 h) (DSS (dimensionless)); higher = more cytotoxic; extreme values may be limits of the assay
quantity measured: drug sensitivity score

Use the examples below as a reference point.
{"compound": "O=S(=O)(c1cccc2cnccc12)N1CCCNCC1 [Fasudil] (max concentration tested 50000 nM)", "drug sensitivity score": 0}
{"compound": "C#Cc1cccc(Nc2ncnc3cc(OCCOC)c(OCCOC)cc23)c1 [Erlotinib] (max concentration tested 10000 nM)", "drug sensitivity score": 0}
{"compound": "CC(C)(C#N)c1cc(Cn2cncn2)cc(C(C)(C)C#N)c1 [Anastrozole] (max concentration tested 10000 nM)", "drug sensitivity score": 0}
{"compound": "CNC(=O)c1cccc(-c2ccc3c(N4CCOC[C@@H]4C)nc(N4CCOC[C@@H]4C)nc3n2)c1 [AZD2014] (max concentration tested 10000 nM)", "drug sensitivity score": 0}
{"compound": "COc1cc2c(Oc3ccc4[nH]c(C)cc4c3F)ncnc2cc1OCCCN1CCCC1 [Cediranib] (max concentration tested 1000 nM)", "drug sensitivity score": 0.112}

I have this compound here, C/C(=C\c1csc(C)n1)[C@@H]1C[C@@H]2O[C@]2(C)CCC[C@H](C)[C@H](O)[C@@H](C)C(=O)C(C)(C)[C@@H](O)CC(=O)O1 [Patupilone] (max concentration tested 1000 nM) , and I need its recorded drug sensitivity score.
21.9

// lookup drug sensitivity score for O=C(NC[C@H](O)CO)c1ccncc1Nc1ccc(I)cc1F [Pimasertib] (max concentration tested 10000 nM)
5.35

# lookup: drug sensitivity score of CCN(CCO)CCCOc1ccc2c(Nc3cc(CC(=O)Nc4cccc(F)c4)[nH]n3)ncnc2c1 [AZD1152-HQPA] (max concentration tested 1000 nM)
0

# get_value(readout='drug sensitivity score', item= Nc1ncn([C@H]2C[C@H](O)[C@@H](CO)O2)c(=O)n1 [Decitabine] (max concentration tested 10000 nM) )
0.342
